Values of IC50 for Rho-associated protein kinase 1 (Homo sapiens), collected from a number of published sources:
endpoint: IC50 (nM)

[1] COc1nc(N[C@H]2CC[C@H](NS(C)(=O)=O)CC2)c(F)cc1C(N)=O
[2] COc1cc(C(=O)N[C@H](CNC(C)=O)c2ccccc2)ccc1-c1cn[nH]c1
I'm curious whether 1 or 2 has the smaller IC50 number. Which is it? Use the label to indicate which entry you chose.
2

[I] COc1cccc(C(CN)NC(=O)c2cccc(-c3ccc4[nH]nc(F)c4c3)c2)c1 (centres unmarked)
[II] COc1cc(-c2cn[nH]c2)ccc1C(=O)NCc1c(F)cccc1Cl
Task for the reader: decide whether I or II has the larger IC50. Provide the label of your selected option as the answer.
I
(I: 180 nM, II: 26.3 nM)

[a] CCNC(=O)c1cccc(CNC(=O)c2ccc(-c3cn[nH]c3)c(C)c2)c1
[b] O=C(NC1CC(F)C1)c1cc2ccc(-c3nc(Nc4ccc(-c5cn[nH]c5)cc4)c4sccc4n3)cc2[nH]1 (centres unmarked)
Which entry shows the lesser value of IC50 here, a or b ? # answer = label of selected item
a
(a: 11.8 nM, b: 5040 nM)
